Exercise: state measured protein stability index for each of the sequences provided.
- procedure_summary: protein stability index of a GFP-peptide fusion (GPS, HEK-293T) (PSI 1-6); higher = more stable;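 also: 24-mer peptide tiles fused after GFP, lentivirally expressed, FACS-sorted into six equal bins by GFP/DsRed ratio, decoded by Illumina sequencing, PSI is the read-weighted mean bin number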
- test_conditions: treatment: MLN4924 1 uM, 8 h; c terminus: a fixed tail appended
One number for each entry.

Worked cases, answers included:
LSQPVTYQAFRECTLETTVHASGW [BCL2L13] | 2.48
PTTGRVYESDSSNHCMLSPSSSGH [C18orf25] | 4.52
VSGGSAGGYGGGVSCGFGGGAGSG [KRT13] | 3.55
KLVRSPSGLRMVPEHRAFGSPFGL [ZFYVE21] | 2.28
AVEGLTEAEEEELRAELTKVEEEI [TPD52L2] | 5.54

Parameter requested: protein stability index. Apply to each item below.
1. SFGNCTYNLTILDCLQGIRKGLQH [CDC14A]
2. EVAEQLELERIGPQHQAGSDSLLT [CNOT7]
3. EERLERCMSIVTSMTAGVSEREAN [INTS3]
4. KPKMYFMTMIVSLAAVAWVGQQVH [ARL6IP1]
5. SPDILEEKHCEFKQLALDHFKKTK [ATL3]
6. TPEVAAAPKPDAAPSIDLFSTDAF [SNAP91]
7. EEDKDEKSSIYESDFQIEPGFYAT [MIA2]

OUTPUT:
[2.33, 4.85, 4.78, 3.28, 4.79, 4.75, 4.46]

Hey, quick one: what's protein stability index for each of these?
1. MGHCCCKPYNCLQCLDKTNESALV [MTUS2]
2. GISALVEIPKNCVVAAVGKELIIF [WDR41]
3. KTSSSSKAGFTASPFTNLLNGSSQ [CDC14A]
4. CFGLQPGCLLPDGSRMMAVAALVV [NLN]
5. PTKADTEKWAEGGGHSRERADEPQ [CHGB]
6. ARLMLESEYRSDIINAKSNDGWTP [ASB7]

OUTPUT:
[3.4, 2.69, 3.51, 2.75, 5.36, 3.15]

Working through the 3 sequences below one at a time, give protein stability index for each.
1. NYSQDAADACDIDEIEEVPTTSHR [NETO1]
2. IHPKSIDLDNYFTARRLLSQVRAL [NFE2L1]
3. SISEEGFHYLVFDLVTGGELFEDI [CAMK2B]

OUTPUT:
1. 5.49
2. 2.54
3. 2.24

Data provenance is the supplement of paper PMC10567573.
